Where these numbers come from: patent US5753648A

# Study System: UniProt P70536
# Sequence (P70536 1-388): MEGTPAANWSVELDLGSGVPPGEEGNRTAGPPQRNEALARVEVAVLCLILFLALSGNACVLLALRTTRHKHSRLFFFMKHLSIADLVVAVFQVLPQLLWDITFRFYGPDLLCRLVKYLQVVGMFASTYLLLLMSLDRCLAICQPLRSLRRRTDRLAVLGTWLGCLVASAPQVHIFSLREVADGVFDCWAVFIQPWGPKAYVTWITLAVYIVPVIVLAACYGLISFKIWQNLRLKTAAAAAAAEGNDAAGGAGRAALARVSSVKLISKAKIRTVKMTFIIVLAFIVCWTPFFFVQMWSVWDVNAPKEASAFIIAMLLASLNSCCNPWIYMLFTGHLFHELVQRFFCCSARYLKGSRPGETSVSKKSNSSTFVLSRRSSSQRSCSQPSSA
# Procedure Text: Oxytocin Receptor Binding
# Study Conditions: rat uterine membranes, [3H]oxytocin
Listing: IC50 of selected compounds
// return numeric value only (unit: nM, not printed)

Here is how some compounds turned out for IC50.
The recorded IC50 for entry O=C(c1ccc(NC2CCc3ccccc32)nc1)N1Cc2cccn2Cc2ccccc21 (stereo not drawn) equals 205

Briefly, IC50 measured for CCCCOc1ccc(C(=O)N2Cc3cc(CO)nn3Cc3ccccc32)cc1 : 3800

Looking up Cc1c(F)cccc1C(=O)Nc1ccc(C(=O)N2Cc3cccn3Cc3ccccc32)cn1 , I found its IC50 recorded as 670

***
// IC50 value for Cc1ncccc1C(=O)Nc1ccc(C(=O)N2Cc3cccn3Cc3ccccc32)cn1 : 190

O=C(Nc1ccc(C(=O)N2Cc3cccn3Cc3ccccc32)cn1)c1ccc(F)cc1Cl has a reported IC50 of 170

IC50 measured on O=C(Nc1ccc(C(=O)N2Cc3cccn3Cc3ccccc32)cn1)c1c(F)cccc1Cl = 310

###

Recorded inhibition at 1 µM for the following compounds
# Study System: Rat Kidney Medullary V2 Receptors (Rattus norvegicus)
# Construct: Medullary tissues from rat kidneys are dissected out; from tissue; host or cells: rat kidney medulla membranes
# Procedure Text: biochemical
# Type: binding
# Study Conditions: at 1 μM
Counter-ions that a name gives are not always drawn.
Report as a plain number; the unit % is understood.

# compound O=C(Nc1ccc(C(=O)N2Cc3cccn3Cc3ccccc32)cc1)c1cccnc1N1CCCCC1 ; its inhibition at 1 µM = 69

Short answer for CC(C)CNc1ccc(C(=O)N2Cc3cccn3Cc3ccccc32)cn1 : inhibition at 1 µM was 32

Entry Cc1ncccc1C(=O)Nc1ccc(C(=O)N2Cc3cccn3Cc3ccccc32)cn1 [Example 330, Hydrochloride] — recorded inhibition at 1 µM = 79

Entry O=C(Nc1ccc(C(=O)N2Cc3cccn3Cc3ccccc32)cn1)c1cc(Cl)ccc1Cl ; inhibition at 1 µM = 99

Summary for this compound, O=C(Nc1ccc(C(=O)N2Cc3cccn3Cc3ccccc32)cn1)c1cc(Br)ccc1Cl : inhibition at 1 µM is 93

***
// inhibition at 1 µM value for CN1CCN(c2ncccc2C(=O)Nc2ccc(C(=O)N3Cc4cccn4Cc4ccccc43)cc2)CC1 [Example 331, Hydrochloride] : 43

Lab note: CNc1ncccc1C(=O)Nc1ccc(C(=O)N2Cc3cccn3Cc3ccccc32)cc1 gave inhibition at 1 µM of 79

The compound listed as CC(C)(C)CCNc1ccc(C(=O)N2Cc3cccn3Cc3ccccc32)cn1 shows inhibition at 1 µM equal to 50

The reported inhibition at 1 µM of the compound CC(C)(C)Nc1ccc(C(=O)N2Cc3cccn3Cc3ccccc32)cn1 was 43

###

# Study System: oxytocin receptors (Rattus norvegicus)
# Sequence (P70536 1-388): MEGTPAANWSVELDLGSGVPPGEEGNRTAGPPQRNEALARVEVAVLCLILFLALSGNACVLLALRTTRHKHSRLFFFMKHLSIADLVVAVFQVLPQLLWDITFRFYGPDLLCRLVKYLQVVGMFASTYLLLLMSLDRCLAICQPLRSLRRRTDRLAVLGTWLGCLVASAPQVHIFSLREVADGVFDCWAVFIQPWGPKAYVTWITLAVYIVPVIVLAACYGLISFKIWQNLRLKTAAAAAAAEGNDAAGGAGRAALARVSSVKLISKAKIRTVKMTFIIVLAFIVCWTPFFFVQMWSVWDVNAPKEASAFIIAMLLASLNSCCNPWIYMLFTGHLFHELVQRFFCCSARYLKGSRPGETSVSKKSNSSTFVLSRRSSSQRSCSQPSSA
# Procedure Text: Oxytocin Receptor Binding
# Study Conditions: rat uterine membranes, [3H]oxytocin
Please respond with label 1 when measured IC50 is strictly beneath 200 nM, and with label 0 in all other cases.

Hi there! Is IC50 for O=C(Nc1ccc(C(=O)N2Cc3cccn3Cc3ccccc32)cc1)c1cccnc1Cl below 200 nM, do you know?
label 0

IC50 strictly < 200 nM for this compound? O=C(Nc1ccc(C(=O)N2Cc3cccn3Cc3ccccc32)cc1)c1cccnc1N1CCCCC1
label 0

***
Say whether its IC50 is strictly beneath 200 nM. Entry: O=C(c1ccc(NCc2ccccc2)nc1)N1Cc2cccn2Cc2ccccc21
label 1

# strict comparison: is reported IC50 < 200 nM? input = O=C(Nc1ccc(C(=O)N2Cc3cccn3Cc3ccccc32)cc1)c1cccnc1N1CCOCC1
label 0

Determine if Cc1ncccc1C(=O)Nc1ccc(C(=O)N2Cc3cccn3Cc3ccccc32)c(Cl)c1 shows IC50 strictly lower than 200 nM.
label 0

Determine if CC(C)CNc1ccc(C(=O)N2Cc3cccn3Cc3ccccc32)cn1 shows IC50 strictly lower than 200 nM.
label 1

Strictly below 200 nM in IC50? O=C(Nc1ccc(C(=O)N2Cc3cccn3Cc3ccccc32)cn1)c1ccccc1Cl
label 1

Strictly below 200 nM: is that where IC50 of CN(C)c1ncccc1C(=O)Nc1ccc(C(=O)N2Cc3cccn3Cc3ccccc32)cc1 [Example 338] sits?
label 0

###

Counter-ions that a name gives are not always drawn.
Record: IC50 reported on UniProtKB P30560.
Sequence (P30560 whole entry): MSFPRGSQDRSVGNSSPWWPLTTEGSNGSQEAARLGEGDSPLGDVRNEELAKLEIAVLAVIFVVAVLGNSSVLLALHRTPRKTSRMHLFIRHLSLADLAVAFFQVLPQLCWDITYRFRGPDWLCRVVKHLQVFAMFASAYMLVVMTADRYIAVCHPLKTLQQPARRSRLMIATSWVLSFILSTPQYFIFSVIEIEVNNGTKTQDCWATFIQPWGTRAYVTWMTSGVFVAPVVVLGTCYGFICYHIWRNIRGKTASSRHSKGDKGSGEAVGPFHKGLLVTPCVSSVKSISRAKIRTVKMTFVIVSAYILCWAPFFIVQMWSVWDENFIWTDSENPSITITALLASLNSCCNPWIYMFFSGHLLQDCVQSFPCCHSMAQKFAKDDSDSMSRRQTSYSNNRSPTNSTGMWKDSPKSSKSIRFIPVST
Your answer is read as nM, so omit the unit and give the number.

The reported IC50 value, UniProtKB P30560, for Cc1ccc(F)cc1C(=O)Nc1ccc(C(=O)N2Cc3cccn3Cc3ccccc32)cn1 [Example 1] reads 33

Query O=C(Nc1ccc(C(=O)N2Cc3cccn3Cc3ccccc32)cn1)c1ccc(F)cc1Cl [Example 9] on UniProtKB P30560; IC50 returned: 6

Record O=C(Nc1ccc(C(=O)N2Cc3cccn3Cc3ccccc32)cc1)c1cccnc1Cl [Example 333] / UniProtKB P30560, IC50 recorded as 250

# Cc1ncccc1C(=O)Nc1ccc(C(=O)N2Cc3cccn3Cc3ccccc32)cc1 [Example 327] with UniProtKB P30560: IC50 is 350

Fill in: UniProtKB P30560 IC50 for CC(C)(Oc1ccc(Cl)cc1)C(=O)Nc1ccc(C(=O)N2Cc3cccn3Cc3ccccc32)cc1 [Example 347] = 180

For the compound O=C(Nc1ccc(C(=O)N2Cc3cccn3Cc3ccccc32)cn1)c1ccc([N+](=O)[O-])cc1Cl [Example 33] , the measured IC50 on UniProtKB P30560 was 450

# lookup: O=C(c1ccc(NC2CCc3ccccc32)nc1)N1Cc2cccn2Cc2ccccc21 (stereo not shown) [Example 350] on UniProtKB P30560, IC50 = 15

// assay UniProtKB P30560, entry CC(C)(C)Nc1ccc(C(=O)N2Cc3cccn3Cc3ccccc32)cn1 [Example 348] , IC50 value = 80

# value of IC50, UniProtKB P30560, item O=C(Nc1ccc(C(=O)N2Cc3cccn3Cc3ccccc32)c(Cl)c1)c1ccccc1Cc1ccccc1 [Example 322] = 670

The value of IC50 recorded for O=C(c1ccc(NCc2ccccc2Br)nc1)N1Cc2cccn2Cc2ccccc21 [Example 352] when tested on UniProtKB P30560 reads 88

IC50 value, target or system UniProtKB P30560, for CN(C)c1ncccc1C(=O)Nc1ccc(C(=O)N2Cc3cccn3Cc3ccccc32)cc1 [Example 332, Hydrochloride] : 31

IC50 of O=C(c1ccc(NCC2CCCCC2)nc1)N1Cc2cccn2Cc2ccccc21 [Example 263] , assay on UniProtKB P30560, is 200

Short answer on UniProtKB P30560 for CN(C)c1ncccc1C(=O)Nc1ccc(C(=O)N2Cc3cccn3Cc3ccccc32)cc1 [Example 338] , IC50: 37

###

# Study System: Rat Kidney Medullary V2 Receptors (Rattus norvegicus, UniProt Q00788)
# Construct: Medullary tissues from rat kidneys are dissected out; from tissue; host or cells: rat kidney medulla membranes
# Sequence (Q00788 whole entry): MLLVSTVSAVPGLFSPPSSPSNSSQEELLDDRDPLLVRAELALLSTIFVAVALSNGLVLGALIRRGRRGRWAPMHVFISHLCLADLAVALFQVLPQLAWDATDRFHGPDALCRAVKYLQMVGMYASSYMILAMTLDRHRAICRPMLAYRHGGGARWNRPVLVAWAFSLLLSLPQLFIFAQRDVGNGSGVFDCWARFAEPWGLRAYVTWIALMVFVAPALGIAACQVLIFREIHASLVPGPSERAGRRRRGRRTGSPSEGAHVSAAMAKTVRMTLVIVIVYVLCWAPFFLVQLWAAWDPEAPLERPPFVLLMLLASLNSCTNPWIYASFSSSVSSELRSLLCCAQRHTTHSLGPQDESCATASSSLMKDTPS
# Procedure Text: biochemical
# Format: binding
# Study Conditions: at 10 μM
Overview of recorded inhibition at 10 µM for various compounds
Give the number; % is assumed, so skip it.

// inhibition at 10 µM value for Cc1ccc(F)cc1C(=O)N(CCN(C)C)c1ccc(C(=O)N2Cc3cccn3Cc3ccccc32)cn1 : 92

The reported inhibition at 10 µM of the compound Cc1ccccc1CNc1ccc(C(=O)N2Cc3cccn3Cc3ccccc32)cn1 was 97

The value of inhibition at 10 µM measured for the compound O=C(Nc1ccc(C(=O)N2Cc3cccn3Cc3ccccc32)cc1)c1cccnc1Oc1ccc(Cl)cc1 turned out to be 76

---
Reported inhibition at 10 µM of O=C(Nc1ccc(C(=O)N2Cc3cccn3Cc3ccccc32)cn1)c1ccc(F)cc1F : 58

The reported inhibition at 10 µM of the compound O=C(c1ccc(SC2CCCCC2)nc1)N1Cc2cccn2Cc2ccccc21 was 54

inhibition at 10 µM reported for this compound CC(C)CNc1ccc(C(=O)N2Cc3cccn3Cc3ccccc32)cn1 : 55

Given item O=C(Nc1ccc(C(=O)N2Cc3cccn3Cc3ccccc32)c(Cl)c1)c1ccccc1-c1ccc(C(F)(F)F)cc1 , the value recorded as its inhibition at 10 µM is 91

The value of inhibition at 10 µM measured for the compound Cc1ccccc1Nc1ccc(C(=O)N2Cc3cccn3Cc3ccccc32)cn1 turned out to be 91

Input Cc1ccc(F)cc1C(=O)Nc1ccc(C(=O)N2Cc3cccn3-c3ncccc32)cn1 . Output inhibition at 10 µM: 94

Record summary for COc1cc(C(=O)Nc2ccc(C(=O)N3Cc4ccc(CN(C)C)n4Cc4ccccc43)cn2)cc(OC)c1OC : reported inhibition at 10 µM = 21
